# Test system: MDA-MB-231 breast
# Test details: NCI-60 one-dose screen, 48 h
# Measurement conditions: 10 µM
# Procedure: Cells are grown in 96 well plates and exposed to the test compound for 48 hours. Compounds are tested at a single concentration, which is 10^-5 M for most compounds. The reported endpoint is percent growth (GI% or GIPRCNT), where numbers from 0 - 100% represent growth inhibition, and numbers from -100% - 0 represent cell death. For example, a value of 40 represents 60% growth inhibition. A value of 0 means no net growth occurred over the course of the experiment. […]
About 83,000 compounds went through this panel and 20% of them were active in at least one assay; those are over-represented in the sample as a whole. Activity calls are given as the source filed them. How the source made its calls: active means growth percent below 10; inactive means the rest.
Outcome codes: y (active), n (inactive)

{"Molecule": "O=C(N/N=C/c1ccccc1)C(Oc1ccccc1)c1ccccc1 (centres undefined)", "Group label": "n"}
{"Molecule": "O=C(Nc1ccc(Cl)c(Cl)c1)Nc1c(Oc2ccc(Cl)c(Cl)c2)ccc(Cl)c1S(=O)(=O)O", "Group label": "n"}
{"Molecule": "CCOC(=O)C(CSC(c1ccccc1)(c1ccccc1)c1ccccc1)NC(=O)C(CSC(c1ccccc1)(c1ccccc1)c1ccccc1)NC(c1ccccc1)(c1ccccc1)c1ccccc1 (centres undefined)", "Group label": "n"}
{"Molecule": "N#Cc1ncc(-c2ccc(C(F)(F)F)cc2)c(NCc2cc(C(F)(F)F)cc(C(F)(F)F)c2)n1", "Group label": "n"}
{"Molecule": "COc1ccc(Nc2cc(C)nc(NCCCNc3ccnc4cc(Cl)ccc34)n2)cc1", "Group label": "y"}
{"Molecule": "Cc1cc(N(CCCNc2ccnc3cc(Cl)ccc23)Cc2cccs2)nc(Cl)n1", "Group label": "n"}
{"Molecule": "CC(=O)c1cc(Br)ccc1O", "Group label": "n"}
{"Molecule": "CC(=O)C1CCC2C3CC(F)C4=CC(=O)CCC4(C)C3C(O)CC12C (centres undefined)", "Group label": "n"}
{"Molecule": "Cc1cs/c(=N\\NC(=O)c2cc(-c3cc4ccccc4o3)nn2-c2ccccc2)n1-c1ccccc1", "Group label": "n"}
{"Molecule": "CC/C(C)=C(\\C)C(=O)O", "Group label": "n"}
{"Molecule": "CC1(O)CCC2CC3OC3(C)CCC3OC3(C)CCC1C2(C)C (centres undefined)", "Group label": "n"}
{"Molecule": "COc1cc(/C=C\\c2cc(OC)c(OC)c(OC)c2)cc(NS(=O)(=O)c2ccc(Cl)cc2)c1OC", "Group label": "n"}
{"Molecule": "CCCCCCCCCCCCCC[n+]1ccc(C(N)=O)cc1", "Group label": "y"}
{"Molecule": "CC(=O)O[C@]1(C)CC[C@H]2[C@H](CNCCc3ccc(Cl)cc3)C(=O)O[C@@H]2C2=C(C)C(=O)C[C@H]21", "Group label": "n"}

###

# Tested on: LOX IMVI melanoma
# Test details: NCI-60 one-dose screen, 48 h (100 = growth as untreated, 0 = no growth, -100 = all killed)
# Measurement conditions: 10 µM
This is part of a sample that, as a whole, favours compounds with a hit. Of some 83,000 tested, about 20% had one in any assay.

{"Molecule": "N=C(N)c1ccc(-c2ccc(-c3ccco3)o2)cc1", "growth (%)": 56.9}
{"Molecule": "O=C(O)c1ccc(Cl)cc1Nc1ccc(F)cc1", "growth (%)": 43.1}
{"Molecule": "COc1ccc(NC(=O)Cc2nc3nc4sc(C)c(C)c4c(=O)n3[nH]2)cc1", "growth (%)": 89.7}
{"Molecule": "CC(C)=CCc1cc(O)cc2c1OC(C=C(C)C)C1=C2C(=O)C2=C(C1=O)S(=O)(=O)CCN2 (stereo not drawn)", "growth (%)": 4.91}
{"Molecule": "COc1ccc(-c2ccc(-c3ccc(C(=N)N)cn3)o2)cc1", "growth (%)": 61.8}
{"Molecule": "CCN(CC)CCC(CNc1c(C)cnc2cc(Cl)ccc12)c1ccc(Cl)c(Cl)c1 (stereo not drawn)", "growth (%)": 37.8}
{"Molecule": "N=C1c2nc3n(c2C(=O)c2nc4n(c21)CCCC4)CCCC3", "growth (%)": -68}
{"Molecule": "O=C(Nc1ccc(OS(=O)(=O)c2ccccc2)cc1)C12CC3CC(CC(C3)C1)C2", "growth (%)": 40}

###

# Test system: HOP-62 NSCLC
# Test details: NCI-60 one-dose screen, 48 h
# Measurement conditions: 10 µM
About 83,000 compounds went through this panel and 20% of them were active in at least one assay; those are over-represented in the sample as a whole. The source made the active and inactive calls. The calls were made as follows: active = growth percent below 10; inactive = the rest.
Outcome codes: YES = active, NO = inactive

{"Molecule": "CCOC(=O)c1ccoc1", "Group label": "NO"}
{"Molecule": "Cc1ccc(C(=O)Nc2cccc(F)c2)cc1NC(=O)C1(c2ncnc3[nH]ccc23)CC1", "Group label": "NO"}
{"Molecule": "CN1CCC(CNc2cc(C3(C(=O)Nc4cc(C(=O)Nc5ccc(Cl)c(C(F)(F)F)c5)ccc4F)CC3)ncn2)CC1", "Group label": "YES"}
{"Molecule": "CN1CCCNc2c(c(=O)c2=O)NCCCN(C)CCCNc2c(c(=O)c2=O)NCCCN(C)CCCNc2c(c(=O)c2=O)NCCCN(C)CCCNc2c(c(=O)c2=O)NCCCN(C)CCCNc2c(c(=O)c2=O)NCCCN(C)CCCNc2c(c(=O)c2=O)NCCCN(C)CCCNc2c(c(=O)c2=O)NCCC1", "Group label": "NO"}
{"Molecule": "COc1ccc(NC(=O)Cc2nc3nc4sc(C)c(C)c4c(=O)n3[nH]2)cc1", "Group label": "NO"}
{"Molecule": "COc1cc(-c2nc(-c3nnc(-c4ccccc4Cl)o3)c3ccccn23)cc(OC)c1OC", "Group label": "NO"}
{"Molecule": "COc1cc(-c2cc(/C=C/C(=O)c3ccc(Cl)c(Cl)c3)[nH]n2)cc(OC)c1OC", "Group label": "NO"}
{"Molecule": "COc1ccc(-c2nn(-c3cccc(NC(=O)Nc4cc(C(F)(F)F)cc(C(F)(F)F)c4)c3)cc2-c2ccncc2)cc1Cl", "Group label": "YES"}
{"Molecule": "O=[N+]([O-])c1cccc(N=Cc2ccc3c(c2)OCO3)c1", "Group label": "NO"}
{"Molecule": "COc1ccc(/C=C/C(C)=N/OCC(=O)O)cc1", "Group label": "NO"}
{"Molecule": "COc1cc(Nc2ccnc(NCCCNc3ccnc4cc(Cl)ccc34)n2)cc(OC)c1", "Group label": "NO"}
{"Molecule": "N=C(N)c1ccc(-c2ccc(-c3cccs3)s2)s1", "Group label": "YES"}
{"Molecule": "COc1ccc(-c2nc3sc(-c4ccc(OC)cc4)c(-c4ccc(OC)cc4)n3c2/C=C/c2ccc(C(C)C)cc2)cc1", "Group label": "NO"}
{"Molecule": "CCOC(=O)C1(CC(C)C)CCOC1=O (configuration not stated)", "Group label": "NO"}
{"Molecule": "CC(=O)/C(=C/c1ccccc1)C(=O)CC(C)C", "Group label": "NO"}
{"Molecule": "CCOC(=O)N1C/C(=C/c2ccc(Cl)cc2)C(=O)/C(=C/c2ccc(Cl)cc2)C1", "Group label": "NO"}
{"Molecule": "COc1cccc(C2C3=C(COC3=O)N(CCO)c3cc(OC)ccc32)c1 (configuration not stated)", "Group label": "NO"}
{"Molecule": "O=c1oc2cc(OS(=O)(=O)c3ccccc3)ccc2c2c1CCCCC2", "Group label": "NO"}
{"Molecule": "FC(F)(F)c1ccc(-c2cnc(-n3cc(COCCN4CCCCC4)nn3)nc2NC2CCCCCC2)cc1", "Group label": "NO"}
{"Molecule": "CCCC1(CC(=O)O)OCCc2c1[nH]c1ccccc21 (configuration not stated)", "Group label": "NO"}
{"Molecule": "O=[N+]([O-])c1ccc(Oc2cc(Cl)c(Cl)cc2Cl)c(C(F)(F)F)c1", "Group label": "NO"}
{"Molecule": "COc1ccc2c(c1)C(=O)c1c-2c(OCCN2CCCCC2)nc2ccc(OC)cc12", "Group label": "NO"}
{"Molecule": "Cc1cccc(Cl)c1NC(=O)c1ccc2nc(NC(=O)NC3CCN(C)CC3)sc2c1", "Group label": "NO"}
{"Molecule": "COc1cc(-c2cc(/C=C3\\C(=O)Nc4ccc(Cl)cc43)[nH]n2)cc(OC)c1OC", "Group label": "NO"}
{"Molecule": "C[C@@H]1C=C2C(=O)O[C@@H]3CC[C@H](C1)[C@]23O", "Group label": "NO"}
{"Molecule": "COc1ccc(-c2nn(-c3cccc(NC(=O)c4cccc(C(F)(F)F)c4)c3)cc2-c2ccncc2)cc1Cl", "Group label": "NO"}
{"Molecule": "CC(=O)OCc1cc(-c2nc3ccccc3[nH]c2=O)nn1-c1ccc(Cl)cc1", "Group label": "NO"}
{"Molecule": "CCCCCCCC(C)NCCO (configuration not stated)", "Group label": "NO"}
{"Molecule": "CCN1Cc2c(/C=C/c3ccccc3)nc3ccc(OC)cc3c2N(c2cccc(Cl)c2)C1", "Group label": "NO"}
{"Molecule": "CCN1CCC2(CC1)OC(c1ccccc1)C(c1ccccc1)O2 (configuration not stated)", "Group label": "NO"}
{"Molecule": "COc1ccc(-c2nn(-c3cccc(NC(=O)c4cc(C(F)(F)F)cc(C(F)(F)F)c4)c3)cc2-c2ccncc2)cc1Cl", "Group label": "NO"}
{"Molecule": "CN(C)CCN1C(=O)c2cccc3c(-c4ccc5ncn(C6CCCCC6)c5c4)ccc(c23)C1=O", "Group label": "NO"}
